Reported Mean : Comp-PE-A is given for each of the following binders.
biological target: T1, CD3 on monkey T cells (monkey splenocytes) (monkey); assay: flow cytometry on monkey splenocytes, 1 µg antibody per 10^6 cells in 100 µl, PE anti-human IgG detection
T1 construct: whole, on cells; The target is printed as 'monkey T cells'
MEASUREMENT LABEL: Mean : Comp-PE-A

BINDER | MEASUREMENT LABEL | DATA VALUE
D16 (antibody, human IgG1, lambda, L234A L235A, V domains shown, humanized SP34 IgG1, lambda) VH: EVQLVESGGGLVQPGGSLKLSCAASGFTFNTYAMNWVRQASGKGLEWVGRIRSKYNNYATYYADSVKDRFTISRDDSQSTLYLQMNSLKTEDTAVYYCVRHGNFGNSYVSWFAYWGQGTLVTVSS VL: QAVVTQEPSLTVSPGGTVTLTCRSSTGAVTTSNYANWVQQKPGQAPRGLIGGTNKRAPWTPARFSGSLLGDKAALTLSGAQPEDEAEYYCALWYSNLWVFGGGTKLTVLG | Mean : Comp-PE-A | 18600
G16 (antibody, human IgG1, lambda, L234A L235A, V domains shown, humanized SP34 IgG1, lambda) VH: EVQLVESGGGLVQPGGSLKLSCAASGFTFNTYAMNWVRQASGKGLEWVARIRSKYNNYATYYADSVKDRFTISRDDSQSTAYLQMNSLKTEDTAVYYCVRHGNFGNSYVSWFAYWGQGTLVTVSS VL: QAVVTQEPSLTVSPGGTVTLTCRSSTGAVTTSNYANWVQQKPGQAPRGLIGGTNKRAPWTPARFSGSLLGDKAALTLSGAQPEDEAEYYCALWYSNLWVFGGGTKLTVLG | Mean : Comp-PE-A | 14000
C16 (antibody, human IgG1, lambda, L234A L235A, V domains shown, humanized SP34 IgG1, lambda) VH: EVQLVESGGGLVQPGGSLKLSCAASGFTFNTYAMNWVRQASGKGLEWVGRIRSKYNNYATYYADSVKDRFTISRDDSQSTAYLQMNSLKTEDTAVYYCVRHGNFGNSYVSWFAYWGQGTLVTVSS VL: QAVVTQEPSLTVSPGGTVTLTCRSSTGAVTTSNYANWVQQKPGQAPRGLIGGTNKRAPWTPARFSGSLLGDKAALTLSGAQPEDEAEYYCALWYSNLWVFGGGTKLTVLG | Mean : Comp-PE-A | 12100

These measurements were taken from patent US20200317779A1.
